Experiment: Clinical trial: pharmacokinetics of rifalazil in plasma after single oral doses
Conditions: male, human, in vivo, po, 2.5 mg
propertyName: AUC (ng·h/mL)
Please give a number only; it is taken to be in ng·h/mL.

Consider the compound CO[C@H]1/C=C/O[C@@]2(C)Oc3c(C)c(O)c4c(=O)c(c5oc6cc(N7CCN(CC(C)C)CC7)cc(O)c6nc-5c4c3C2=O)NC(=O)/C(C)=C\C=C\[C@H](C)[C@H](O)[C@@H](C)[C@@H](O)[C@@H](C)[C@H](OC(C)=O)[C@@H]1C [rifalazil, Rifalazil] and give its measured AUC.
185

====

Assay: Clinical trial: pharmacokinetics of rifalazil in plasma after single oral doses
Conditions: male, human, in vivo, po, 2.5 mg, Distribution t½, males, single 2.5 mg oral dose
propertyName: half-life (h)
Number in h, nothing else.

# input compound: CO[C@H]1/C=C/O[C@@]2(C)Oc3c(C)c(O)c4c(=O)c(c5oc6cc(N7CCN(CC(C)C)CC7)cc(O)c6nc-5c4c3C2=O)NC(=O)/C(C)=C\C=C\[C@H](C)[C@H](O)[C@@H](C)[C@@H](O)[C@@H](C)[C@H](OC(C)=O)[C@@H]1C ; wanted: its half-life
7.3

====

Assay: Clinical trial: pharmacokinetics of rifalazil in plasma after single oral doses
Conditions: male, human, in vivo, po, 50 mg, Distribution t½, males, single 50 mg oral dose
propertyName: half-life (h)
Give your result in h as a bare value.

Give the measured half-life of CO[C@H]1/C=C/O[C@@]2(C)Oc3c(C)c(O)c4c(=O)c(c5oc6cc(N7CCN(CC(C)C)CC7)cc(O)c6nc-5c4c3C2=O)NC(=O)/C(C)=C\C=C\[C@H](C)[C@H](O)[C@@H](C)[C@@H](O)[C@@H](C)[C@H](OC(C)=O)[C@@H]1C .
11.6

====

Assay: Clinical trial: pharmacokinetics of rifalazil in plasma after single oral doses
Conditions: male, human, in vivo, po, 2.5 mg
propertyName: Cmax (ng/mL)
Express the result in ng/mL but write the number alone.

Consider the molecule shown here: CO[C@H]1/C=C/O[C@@]2(C)Oc3c(C)c(O)c4c(=O)c(c5oc6cc(N7CCN(CC(C)C)CC7)cc(O)c6nc-5c4c3C2=O)NC(=O)/C(C)=C\C=C\[C@H](C)[C@H](O)[C@@H](C)[C@@H](O)[C@@H](C)[C@H](OC(C)=O)[C@@H]1C What is its recorded Cmax?
7.9

====

Test: Clinical trial: pharmacokinetics of rifalazil in plasma after single oral doses
Conditions: male, human, in vivo, po, 2.5 mg
propertyName: CL/F (mL/min/kg)
Quick note: give the figure in mL/min/kg, leave out the unit.

# input molecule: CO[C@H]1/C=C/O[C@@]2(C)Oc3c(C)c(O)c4c(=O)c(c5oc6cc(N7CCN(CC(C)C)CC7)cc(O)c6nc-5c4c3C2=O)NC(=O)/C(C)=C\C=C\[C@H](C)[C@H](O)[C@@H](C)[C@@H](O)[C@@H](C)[C@H](OC(C)=O)[C@@H]1C ; wanted: its CL/F
3

====

Test: Clinical trial: pharmacokinetics of rifalazil in plasma after single oral doses
Settings: male, human, in vivo, po, 50 mg
propertyName: Cmax

Data request, read-out Cmax, for CO[C@H]1/C=C/O[C@@]2(C)Oc3c(C)c(O)c4c(=O)c(c5oc6cc(N7CCN(CC(C)C)CC7)cc(O)c6nc-5c4c3C2=O)NC(=O)/C(C)=C\C=C\[C@H](C)[C@H](O)[C@@H](C)[C@@H](O)[C@@H](C)[C@H](OC(C)=O)[C@@H]1C
57.3 ng/mL

Reference for the values: patent US8097607B2
